The entries below come with measured GI50 values attached.
- Tested on: UO-31
- PROCEDURE_TEXT: NCI tumour cell line growth inhibition, 48 h
Calls of active or inactive are those of the source. Rule as the data show it: active = GI50 up to about 1.1 µM and inactive = higher.

In the examples that follow, each entry is paired with its recorded GI50.
{"COMPOUND": "N#C/C(=C\\c1ccc(O)c(O)c1)c1c(C#N)c(N)nn1-c1ccccc1", "TARGET_OF_ASSAY": "UO-31", "QUANTITY_KIND": "GI50", "RESULT": "6.47 µM (inactive)"}
{"COMPOUND": "N#Cc1c(-c2ccccc2)[nH]c2ccccc2c1=O", "TARGET_OF_ASSAY": "UO-31", "QUANTITY_KIND": "GI50", "RESULT": "> 10 µM (inactive)"}
{"COMPOUND": "COC1=C(C)C(=O)c2c(cc3c(c2O)C(C)(CCC=C(C)C)C(C)O3)C1=O (stereo not given)", "TARGET_OF_ASSAY": "UO-31", "QUANTITY_KIND": "GI50", "RESULT": "> 100 µM (inactive)"}

# GI50 lookup, item COC(=O)CCC1=CCC2(SC)C(=O)Nc3cccc1c32 (stereo not given) > 100 µM (inactive)

# GI50 lookup, item O=C1OC(c2ccccc2)N(C(=O)c2ccccc2)C1Cc1ccc(OCc2ccccc2)cc1 (stereo not given) 21.1 µM (inactive)

---

- Tested on: OVCAR-4
- PROCEDURE_TEXT: NCI tumour cell line growth inhibition, 48 h
The source made the active and inactive calls. No stated cut-off is given here; in the data, active = GI50 up to about 1.1 µM and inactive = higher.
The entries below come with measured GI50 values attached.

{"MOLECULE": "CCCCCC[C@H]1CC(=O)C2CCCC[C@@]23CC[C@H](CCl)N13.CCCCCC[C@H]1CC(=O)C2CCCC[C@@]23C[C@H](Cl)CN13 (stereo partly specified)", "TARGET_OF_ASSAY": "OVCAR-4", "QUANTITY_KIND": "GI50", "RESULT": "40.2 µM (inactive)"}
{"MOLECULE": "CCOC(=O)/C=C(/C(=O)OCC)n1ccc(N)nc1=O", "TARGET_OF_ASSAY": "OVCAR-4", "QUANTITY_KIND": "GI50", "RESULT": "56 µM (inactive)"}
{"MOLECULE": "Cc1cc(C)c2c(n1)S(=O)(=O)N(CCCN1CCN(c3cccc(Cl)c3)CC1)C(C(=O)c1ccc(Br)cc1)=C2O", "TARGET_OF_ASSAY": "OVCAR-4", "QUANTITY_KIND": "GI50", "RESULT": "11.4 µM (inactive)"}
{"MOLECULE": "COC(=O)c1ccccc1Nc1ccccc1C(=O)OC", "TARGET_OF_ASSAY": "OVCAR-4", "QUANTITY_KIND": "GI50", "RESULT": "48.9 µM (inactive)"}
{"MOLECULE": "N/N=C1\\c2ccccc2C2/C(=N\\N)c3ccccc3C12 (stereo unspecified)", "TARGET_OF_ASSAY": "OVCAR-4", "QUANTITY_KIND": "GI50", "RESULT": "> 100 µM (inactive)"}
{"MOLECULE": "O=C1C(O)=C(CC=C(Cl)Cl)C(=O)c2ccccc21", "TARGET_OF_ASSAY": "OVCAR-4", "QUANTITY_KIND": "GI50", "RESULT": "21.7 µM (inactive)"}

# GI50 lookup, item COC(=O)[C@H](Cc1ccccc1)NC(=O)c1ccc(CNC(=O)/C=C/c2csc(-c3ccccc3)n2)cc1 24 µM (inactive)

# GI50 lookup, item C/C(C=O)=N\Nc1cc(C)c2ccccc2n1 12.8 µM (inactive)

# GI50 lookup, item CC(=O)OC[C@H]1[C@@H]2C(CC[C@]13CO3)OC(=O)CC(C)[C@]2(C)CCc1ccoc1 (stereo partly specified) > 100 µM (inactive)

# GI50 lookup, item ClC(Cl)(Cl)C1CCOC1n1nc2ccccc2n1 (stereo unspecified) > 100 µM (inactive)

# GI50 lookup, item C[C@@H](NC(=O)Cn1c(Cl)nc2ccccc21)c1ccccc1 > 100 µM (inactive)

# GI50 lookup, item NC(=O)C1=CC2C3C=CC2(O)C(=O)OC3O1 (stereo unspecified) 4.33 µM (inactive)

# GI50 lookup, item [O-][S+](Nc1ccccc1)c1ccc(Cl)c(Cl)c1 (stereo unspecified) 47.9 µM (inactive)

---

- Test system: TK-10
- PROCEDURE_TEXT: NCI tumour cell line growth inhibition, 48 h
The source made the active and inactive calls. Rule as the data show it: active = GI50 up to about 1.1 µM and inactive = higher.
The entries below come with measured GI50 values attached.

In the examples that follow, each entry is paired with its recorded GI50.
{"COMPOUND": "OCC1CCCCCCCCCCC12SCCCS2 (stereo not drawn)", "TARGET_OF_ASSAY": "TK-10", "GI50": "> 100 µM (inactive)"}
{"COMPOUND": "COC(=O)CC[C@]12C[C@]13CC[C@]1(C)C4C(C)C[C@]5(CC(C)C(=O)O5)OC4CC1(C)C3CCC2C(C)(C)O (stereo partly drawn)", "TARGET_OF_ASSAY": "TK-10", "GI50": "> 100 µM (inactive)"}
{"COMPOUND": "Oc1c2c(nc3cc4c(cc13)OCO4)-c1ccccc1CC2", "TARGET_OF_ASSAY": "TK-10", "GI50": "> 100 µM (inactive)"}
{"COMPOUND": "CCCc1[nH]nc(C(N)=O)c1/N=N/N(C)C", "TARGET_OF_ASSAY": "TK-10", "GI50": "67.5 µM (inactive)"}

# GI50 lookup, item COc1cc(C2S/C(=C/c3ccccc3)C(=O)N2c2cccc(NC(C)=O)c2)cc(OC)c1OC (stereo not drawn) 80.5 µM (inactive)

# GI50 lookup, item CC1=NN(c2ccccc2)C(=O)/C1=C1\SC(c2ccccc2)(c2ccccc2)c2ccccc21 > 100 µM (inactive)

# GI50 lookup, item O=C(NNC(=O)c1ccco1)c1ccco1 > 100 µM (inactive)

# GI50 lookup, item CCC(=O)C(CCN1CCC2(CCCc3ccccc32)CC1)(c1ccccc1)c1ccccc1 3.77 µM (inactive)

---

- Test system: PC-3
- PROCEDURE_TEXT: NCI tumour cell line growth inhibition, 48 h
Activity calls are given as the source filed them. No stated cut-off is given here; in the data, active = GI50 up to about 1.1 µM and inactive = higher. Residues, ends and D or L forms follow the SMILES beside them. *: point of attachment. Ethyl(2-NMe3+) = C[N+](C)(C)CC*; Boc = CC(C)(C)OC(=O)*
QUANTITY_KIND: GI50

{"MOLECULE": "C/C(=C\\COP(=O)(O)OP(=O)(O)O)CC/C=C(\\C)CNc1ccccc1", "QUANTITY_KIND": "GI50", "RESULT": "> 50 µM (inactive)"}

Please provide the recorded GI50 for O=C(CC1C=Cc2ccccc2N1C(=O)c1ccccc1)c1ccccc1 (stereo not given) , tested on PC-3. 26.5 µM (inactive)

Please provide the recorded GI50 for O=C(NNC(=O)c1ccco1)c1ccco1 , tested on PC-3. > 100 µM (inactive)

Please provide the recorded GI50 for c1ccc(C(Oc2noc3ccccc23)c2ccccc2)cc1 , tested on PC-3. 34.4 µM (inactive)

Please provide the recorded GI50 for CCOC(=O)c1c(NC(=O)Nc2ccccc2)c(C(N)=O)c2n1CCCCC2 , tested on PC-3. > 100 µM (inactive)

Please provide the recorded GI50 for CC(NC(=O)C(Cc1ccc(OCC[N+](C)(C)C)cc1)NC(=O)OC(C)(C)C)C(=O)NC(Cc1ccccc1)C(=O)NCC(N)=O (stereo not given) (Boc-Y(Ethyl(2-NMe3+))AFG-NH2; configuration not given here) , tested on PC-3. > 100 µM (inactive)

Please provide the recorded GI50 for CCOc1cc(-c2nc3cc(F)ccc3s2)ccc1O , tested on PC-3. 14.5 µM (inactive)

Please provide the recorded GI50 for OC1c2c(ccc3c2CCC3)CC12Cc1ccccc1C2 (stereo not given) , tested on PC-3. 15.3 µM (inactive)

Please provide the recorded GI50 for CCC(CON(C)c1ccccc1)(SC)SC , tested on PC-3. > 100 µM (inactive)

Please provide the recorded GI50 for C=C(C)C(=O)O[C@@H]1C[C@@]2(C)O[C@@H]2C[C@H](O)/C(C)=C/[C@H]2OC(=O)C(=C)[C@@H]21 , tested on PC-3. > 100 µM (inactive)

Please provide the recorded GI50 for CCOc1cc2c(cc1O)C(=O)C[C@@H]1[C@@H]2CC[C@]2(C)[C@@H](O)CC[C@@H]12 , tested on PC-3. 2.71 µM (inactive)

---

- System: SR
- PROCEDURE_TEXT: NCI tumour cell line growth inhibition, 48 h
The source made the active and inactive calls. Cut-off read from the data, not from the text of the source: active = GI50 up to about 1.1 µM and inactive = higher.
QUANTITY_KIND: GI50

{"MOLECULE": "O=C(CCl)N1CCN(c2ccccn2)CC1", "TARGET_OF_ASSAY": "SR", "GI50": "34.9 µM (inactive)"}
{"MOLECULE": "CO/C(=N\\N=C\\c1ccc(C(F)(F)F)cc1)c1ccncc1", "TARGET_OF_ASSAY": "SR", "GI50": "> 10 µM (inactive)"}
{"MOLECULE": "CCC(=O)C(CCN1CCC2(CCCc3ccccc32)CC1)(c1ccccc1)c1ccccc1", "TARGET_OF_ASSAY": "SR", "GI50": "1.66 µM (inactive)"}
{"MOLECULE": "Cc1cn(C(C)OCCN2C(=O)c3ccccc3C2=O)c(=O)[nH]c1=O (stereo not given)", "TARGET_OF_ASSAY": "SR", "GI50": "> 100 µM (inactive)"}

As a next step, examine the molecule that follows.
# GI50 lookup, item O=C(NNC(=O)c1ccco1)c1ccco1 > 100 µM (inactive)
